pKi: −log10 of the molar value.
Read-out record for Carbonic anhydrase 2 (Homo sapiens): pKi
Quantity Measured: pKi

Take a look at these entries with their results.
Nc1nc(-c2ccc(NC(=O)c3ccc(C(=O)NO)cc3)cc2)cn2c(=O)n(-c3ccccc3)nc12    4.20
Nc1nc(-c2ccc(NCc3ccc(S(N)(=O)=O)cc3)cc2)cn2c(=O)n(-c3ccccc3)nc12    6.05

a = Nc1nc(-c2ccc(S(N)(=O)=O)cc2)cn2c(=O)n(-c3ccccc3)nc12
b = Nc1nc(-c2ccc(OCCNC(=O)c3ccc(S(N)(=O)=O)cc3)cc2)cn2c(=O)n(-c3ccccc3)nc12
Between the entries labelled a and b , which has a larger pKi value on record? Reply briefly: the label of your chosen item.
b

* * *

pKi: −log10 of the molar value.
Read-out record for Adenosine receptor A2a (Homo sapiens, UniProt P29274): pKi
Quantity Measured: pKi

Take a look at these entries with their results.
CCOC(=O)c1ccc(C(=O)Nc2ccc(-c3cn4c(=O)n(-c5ccccc5)nc4c(N)n3)cc2)cc1    5.87
Nc1nc(-c2ccc(NC(=O)c3cccc(S(N)(=O)=O)c3)cc2)cn2c(=O)n(-c3ccccc3)nc12    7.87
Nc1nc(-c2ccc(NCC(=O)c3ccc(S(N)(=O)=O)cc3)cc2)cn2c(=O)n(-c3ccccc3)nc12    7.59

P = Nc1nc(-c2ccc(NC(=O)c3ccc(O)c(O)c3)cc2)cn2c(=O)n(-c3ccccc3)nc12
Q = Nc1nc(-c2ccc(NCc3ccc(S(N)(=O)=O)cc3)cc2)cn2c(=O)n(-c3ccccc3)nc12
R = CCOC(=O)CNc1ccc(-c2cn3c(=O)n(-c4ccccc4)nc3c(N)n2)cc1
S = COc1ccc(C(=O)Nc2ccc(-c3cn4c(=O)n(-c5ccccc5)nc4c(N)n3)cc2)cc1
T = Nc1nc(-c2ccc(NC(=O)c3ccc(C(=O)O)cc3)cc2)cn2c(=O)n(-c3ccccc3)nc12
Reorder: pKi, max to min. Give your ranking as a list of the labels in the requested order.
S, P, Q, T, R
(S: 9.15, P: 8.05, Q: 7.55, T: 7.09, R: 5.20)

* * *

Read-out record for Carbonic anhydrase 12 (Homo sapiens): pKi
pKi: −log10 of the molar value.
Quantity Measured: pKi

Nc1nc(-c2ccc(OCCNCCc3ccc(S(N)(=O)=O)cc3)cc2)cn2c(=O)n(-c3ccccc3)nc12    6.10
Nc1nc(-c2ccc(NC(=O)CCNC(=O)c3cccc(S(N)(=O)=O)c3)cc2)cn2c(=O)n(-c3ccccc3)nc12    6.08

a = Nc1nc(-c2ccc(NC(=O)c3cccc(S(N)(=O)=O)c3)cc2)cn2c(=O)n(-c3ccccc3)nc12
b = Nc1nc(-c2ccc(NC(=O)CCNCCc3ccc(S(N)(=O)=O)cc3)cc2)cn2c(=O)n(-c3ccccc3)nc12
Which has the smaller recorded pKi, a or b ? Reply briefly: the label of your chosen item.
a
(a: 6.52, b: 9.58)

P = CN(C)c1nc(-c2ccc(S(N)(=O)=O)cc2)cn2c(=O)n(-c3ccccc3)nc12
Q = Nc1nc(-c2ccc(NCC(=O)c3ccc(S(N)(=O)=O)cc3)cc2)cn2c(=O)n(-c3ccccc3)nc12
Which has the smaller recorded pKi, P or Q ? Reply briefly: the label of your chosen item.
P
(P: 6.45, Q: 7.59)
